# Tested on: Huh 5.2 cells
# protocol-text: Cytotoxicity (50% extinction of cells) in the anti-HCV replicon assay
# Format: cell-based
# condition-info: 3-day cell culture assay, read-out: CC50, concentration of compound required for 50% extinction of Huh 5.2 cells
reported-endpoint: CC50

Q) Name the recorded CC50 of the molecule listed here: C[C@@]1(O)[C@H](O)[C@@H](CO)O[C@H]1n1ccc(N)nc1=O [Compound 2CmeCyt, reference compound]
A) > 300 µM

###

# protocol-text: Cytotoxicity (50% extinction of cells) in the anti-HCV replicon assay
# Format: cell-based
# condition-info: human; Huh 5.2 cells; 3-day cell culture assay; read-out: CC50, concentration of compound required for 50% extinction of Huh 5.2 cells
Some molecules, each annotated with its measured CC50 at 3 day.

Here's what some known entries look like.
1) O=c1c2ccccc2ncn1Cc1cn(CCCCO)nn1 [Compound 7i] = ≥ 50 µM
2) Cc1nc2ccccc2c(=O)n1Cc1cn(CCCCO)nn1 [Compound 7f] = ≥ 50 µM
3) Cc1nc2ccccc2c(=O)n1Cc1cn(COCCO)nn1 [Compound 7e] = ≥ 50 µM
4) OCCCCn1cc(COc2nc(-c3ccccc3)nc3ccccc23)nn1 [Compound 7c] = ≥ 50 µM
5) OCCOCn1cc(COc2nc(-c3ccccc3)nc3ccccc23)nn1 [Compound 7b] = ≥ 100 µM

// next item, CC50 at 3 day requested
Q) Name the recorded CC50 at 3 day of the molecule listed here: O=c1c2ccccc2ncn1Cc1cn(COCCO)nn1 [Compound 7h]
A) ≥ 50 µM
